target: T1, human IL-1β (human, UniProt P01584 117-269); assay: BIAcore, antibody captured on protein A CM5 chip, human IL-1β flowed
T1 construct: mature; also called mature human IL-1β; Interleukin-1β
pKd: −log10 of the molar value.
# Lookup of reported pKd keyed by entry
READOUT_LABEL: pKd

binder="humanized antibody Hu007 (antibody, human IgG1, kappa, V domains shown, Human IgG1 kappa; also called WT; Hu007 WT) VH: QVQLVQSGAEVKKPGASVKVSCKVSGYTFSRYWIEWVRQAPGKGLEWIGEILPGNGNINYNEKFKGKATITADTSTDTAYMELSSLRSEDTAVYYCSTIYYDYDQGFTYWGQGTLVTVSS VL: DIQMTQSPSSLSASVGDRVTITCKASQDIDRYLSWFQQKPGKAPKSLIYRVKRLVDGVPSRFSGSASGTDYTLTISSLQPEDFATYYCLQYDEFPYTFGQGTKLEIKR" numeric_result=10.98
binder="Hu007 analog G56A (antibody, human IgG1, kappa, V domains shown, IgG1; Heavy chain of Hu007 with G56A, co-transfected with the WT Hu007 light chain) VH: QVQLVQSGAEVKKPGASVKVSCKVSGYTFSRYWIEWVRQAPGKGLEWIGEILPGNANINYNEKFKGKATITADTSTDTAYMELSSLRSEDTAVYYCSTIYYDYDQGFTYWGQGTLVTVSS VL: DIQMTQSPSSLSASVGDRVTITCKASQDIDRYLSWFQQKPGKAPKSLIYRVKRLVDGVPSRFSGSASGTDYTLTISSLQPEDFATYYCLQYDEFPYTFGQGTKLEIKR" numeric_result=10.47
binder="Hu007 analog N55S (antibody, human IgG1, kappa, V domains shown, IgG1; also called heavy chain CDR2, N55S) VH: QVQLVQSGAEVKKPGASVKVSCKVSGYTFSRYWIEWVRQAPGKGLEWIGEILPGSGNINYNEKFKGKATITADTSTDTAYMELSSLRSEDTAVYYCSTIYYDYDQGFTYWGQGTLVTVSS VL: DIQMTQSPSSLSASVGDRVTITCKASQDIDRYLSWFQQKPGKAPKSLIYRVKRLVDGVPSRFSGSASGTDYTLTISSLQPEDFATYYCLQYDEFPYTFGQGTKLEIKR" numeric_result=10.55
binder="Hu007 analog N55Q (antibody, human IgG1, kappa, V domains shown, IgG1; Heavy chain of Hu007 with N55Q, co-transfected with the WT Hu007 light chain) VH: QVQLVQSGAEVKKPGASVKVSCKVSGYTFSRYWIEWVRQAPGKGLEWIGEILPGQGNINYNEKFKGKATITADTSTDTAYMELSSLRSEDTAVYYCSTIYYDYDQGFTYWGQGTLVTVSS VL: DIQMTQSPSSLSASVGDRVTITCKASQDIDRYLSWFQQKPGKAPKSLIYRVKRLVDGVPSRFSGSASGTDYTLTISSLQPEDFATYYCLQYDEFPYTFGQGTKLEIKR" numeric_result=9.59
